observation_type: melting point

Lookup: Returns the measured melting point for the input compound. Input: `COc1ccc2c(c1)Cc1cc(=O)[nH]nc1-2`
Found: 280 to 284 °C

Lookup: Also, `OCCCc1cn(-c2ccc(F)cc2)c2ccc(Cl)cc12` please.
Found: 67 to 69 °C

Lookup: Also, `COc1cc2c(cc1OCc1ccccc1)CCN(Cc1cccc(O)c1)C2` please.
Found: 78 to 79 °C

Lookup: Also, `CCCCNCc1cc(N)c(Cc2ccccc2)c(S(N)(=O)=O)c1` please.
Found: 141 to 143 °C

Now examine the next entry.
Lookup: Returns the measured melting point for the input compound. Input: CN(CC(=O)NC1(c2ccccc2Cl)C(=O)Nc2ccc(Cl)cc21)CC(=O)OC(C)(C)C (stereo not given)
Found: 200 °C
